The following compounds are listed with their measured IC50 at 72 h values.
# Protocol Notes: MTT cytotoxicity in RPE cells
# Assay type: cell-based
# Test Conditions: human, retinal pigment epithelial (RPE) cells, read-out: IC50 (cell viability)

Please review the following examples before continuing.
>  <Compound>
CC#Cc1ccc(C(=O)Nc2ccc(C3CC3N)cc2)cc1.Cl (stereo not drawn)

>  <IC50 at 72 h>
> 100 µM

$$$$
>  <Compound>
C#Cc1ccc(C(=O)Nc2ccc(C3CC3N)cc2)cc1 (stereo not drawn) [MC3935, reference compound]

>  <IC50 at 72 h>
> 100 µM

$$$$

Look at this compound and give its reported IC50 at 72 h. CN1CCN(c2cc(C(=O)Nc3ccc(C4CC4N)cc3)ccc2NC(=O)OCc2ccccc2)CC1 (stereo not drawn)
55.8 µM

Look at this compound and give its reported IC50 at 72 h. Cl.NC1CC1c1ccc(NC(=O)c2ccc(C#CC3CC3)cc2)cc1 (stereo not drawn)
> 100 µM

Look at this compound and give its reported IC50 at 72 h. CCCc1ccc(C(=O)Nc2ccc(C3CC3N)cc2)cc1.Cl (stereo not drawn)
> 100 µM

Look at this compound and give its reported IC50 at 72 h. NC1CC1c1ccc(NC(=O)c2ccc(-c3ccccc3)cc2)cc1 (stereo not drawn)
68.9 µM

---

The following compounds are listed with their measured Percentage of effect values.
# Tested on: S. mansoni juvenile forms
# Protocol Notes: Speed-of-action assay in juvenile forms
# Format: cell-based, Schistosoma mansoni
# Test Conditions: juvenile forms, 48 h, 20 μM
# Excerpt: To better characterize a selection of our LSD1i in vitro, we assessed the onset of their action, defined as the time required for an observable antischistosomal effect. […] For detailed percentages of activity at each time point, refer to the Supporting Information (Tables S2 and S3 in Supporting Information).
Unit % implied. Number only.

>  <Compound>
CC#Cc1ccc(C(=O)Nc2ccc(C3CC3N)cc2)cc1.Cl (centres unmarked) [Compound 18]

>  <Unit Text>
%

>  <Percentage of effect>
47.92

$$$$
>  <Compound>
CCCc1ccc(C(=O)Nc2ccc(C3CC3N)cc2)cc1.Cl (centres unmarked) [Compound 15]

>  <Unit Text>
%

>  <Percentage of effect>
50

$$$$
>  <Compound>
C#Cc1ccc(C(=O)Nc2ccc(C3CC3N)cc2)cc1 (centres unmarked) [MC3935, reference compound]

>  <Unit Text>
%

>  <Percentage of effect>
39.58

$$$$

Look at this compound and give its reported Percentage of effect. NC1CC1c1ccc(NC(=O)c2ccc(-c3ccccc3)cc2)cc1 (centres unmarked) [Compound 2]
56.25

Look at this compound and give its reported Percentage of effect. Cl.NC1CC1c1ccc(NC(=O)c2ccc(C#CC3CC3)cc2)cc1 (centres unmarked) [Compound 19]
47.92

---

# Protocol Notes: MTT cytotoxicity in MRC-5 cells
# Assay type: cell-based
# Test Conditions: human, MRC-5 lung diploid fibroblast cells, read-out: IC50 (cell viability)
Value Kind: IC50 at 72 h

Please review the following examples before continuing.
>  <Compound>
CCCc1ccc(C(=O)Nc2ccc(C3CC3N)cc2)cc1.Cl (stereo not drawn)

>  <IC50 at 72 h>
> 100 µM

$$$$
>  <Compound>
CC#Cc1ccc(C(=O)Nc2ccc(C3CC3N)cc2)cc1.Cl (stereo not drawn)

>  <IC50 at 72 h>
> 100 µM

$$$$
>  <Compound>
C#Cc1ccc(C(=O)Nc2ccc(C3CC3N)cc2)cc1 (stereo not drawn) [MC3935, reference compound]

>  <IC50 at 72 h>
> 100 µM

$$$$
>  <Compound>
CN1CCN(c2cc(C(=O)Nc3ccc(C4CC4N)cc3)ccc2NC(=O)OCc2ccccc2)CC1 (stereo not drawn)

>  <IC50 at 72 h>
24.3 µM

$$$$
>  <Compound>
Cl.NC1CC1c1ccc(NC(=O)c2ccc(C#CC3CC3)cc2)cc1 (stereo not drawn)

>  <IC50 at 72 h>
> 100 µM

$$$$

Look at this compound and give its reported IC50 at 72 h. NC1CC1c1ccc(NC(=O)c2ccc(-c3ccccc3)cc2)cc1 (stereo not drawn)
5.9 µM

---

The following compounds are listed with their measured Percentage of effect values.
# System: S. mansoni juvenile forms
# Protocol Notes: Speed-of-action assay in juvenile forms
# Assay type: cell-based, Schistosoma mansoni
# Test Conditions: juvenile forms, 72 h, 10 μM
# Description: To better characterize a selection of our LSD1i in vitro, we assessed the onset of their action, defined as the time required for an observable antischistosomal effect. […] For detailed percentages of activity at each time point, refer to the Supporting Information (Tables S2 and S3 in Supporting Information).
Unit % implied. Number only.

Please review the following examples before continuing.
>  <Compound>
Cl.NC1CC1c1ccc(NC(=O)c2ccc(C#CC3CC3)cc2)cc1 (centres unmarked)

>  <Percentage of effect (%)>
46.73

$$$$
>  <Compound>
CC#Cc1ccc(C(=O)Nc2ccc(C3CC3N)cc2)cc1.Cl (centres unmarked)

>  <Percentage of effect (%)>
44.77

$$$$

Query for S. mansoni juvenile forms: what Percentage of effect does the record show for C#Cc1ccc(C(=O)Nc2ccc(C3CC3N)cc2)cc1 (centres unmarked) [MC3935, reference compound] ?
39

Query for S. mansoni juvenile forms: what Percentage of effect does the record show for CCCc1ccc(C(=O)Nc2ccc(C3CC3N)cc2)cc1.Cl (centres unmarked) ?
44.55

Query for S. mansoni juvenile forms: what Percentage of effect does the record show for NC1CC1c1ccc(NC(=O)c2ccc(-c3ccccc3)cc2)cc1 (centres unmarked) ?
39.11

---

# Protocol Notes: MTT cytotoxicity in MRC-5 cells
# Assay type: cell-based
# Test Conditions: human, MRC-5 lung diploid fibroblast cells, 10 μM, read-out: percentage of viability, 72 h
The threshold is 80%. Values of viability at 72 h, 10 µM beneath it are tagged Criterion met; values meeting or exceeding it are tagged Criterion not met.

Study these solved cases before continuing.
>  <Compound>
CN1CCN(c2cc(C(=O)Nc3ccc(C4CC4N)cc3)ccc2NC(=O)OCc2ccccc2)CC1 (stereo not drawn)

>  <Class>
Criterion met

$$$$
>  <Compound>
C#Cc1ccc(C(=O)Nc2ccc(C3CC3N)cc2)cc1 (stereo not drawn) [MC3935, reference compound]

>  <Class>
Criterion not met

$$$$

viability at 72 h, 10 µM under 80%? Item: CCCc1ccc(C(=O)Nc2ccc(C3CC3N)cc2)cc1.Cl (stereo not drawn)
Criterion not met

viability at 72 h, 10 µM under 80%? Item: CC#Cc1ccc(C(=O)Nc2ccc(C3CC3N)cc2)cc1.Cl (stereo not drawn)
Criterion met

viability at 72 h, 10 µM under 80%? Item: NC1CC1c1ccc(NC(=O)c2ccc(-c3ccccc3)cc2)cc1 (stereo not drawn)
Criterion met

viability at 72 h, 10 µM under 80%? Item: Cl.NC1CC1c1ccc(NC(=O)c2ccc(C#CC3CC3)cc2)cc1 (stereo not drawn)
Criterion not met

---

# Protocol Notes: MTT cytotoxicity in RPE cells
# Format: cell-based
# Test Conditions: human, retinal pigment epithelial (RPE) cells, 25 μM, read-out: percentage of viability, 72 h
The following molecules are listed with their measured viability at 72 h, 25 µM values.
Unit % implied. Number only.

>  <Molecule>
CCCc1ccc(C(=O)Nc2ccc(C3CC3N)cc2)cc1.Cl (stereo not drawn) [Compound 15]

>  <viability at 72 h, 25 µM / %>
99

$$$$
>  <Molecule>
NC1CC1c1ccc(NC(=O)c2ccc(-c3ccccc3)cc2)cc1 (stereo not drawn) [Compound 2]

>  <viability at 72 h, 25 µM / %>
87

$$$$
>  <Molecule>
CN1CCN(c2cc(C(=O)Nc3ccc(C4CC4N)cc3)ccc2NC(=O)OCc2ccccc2)CC1 (stereo not drawn) [Compound 5]

>  <viability at 72 h, 25 µM / %>
82

$$$$
>  <Molecule>
CC#Cc1ccc(C(=O)Nc2ccc(C3CC3N)cc2)cc1.Cl (stereo not drawn) [Compound 18]

>  <viability at 72 h, 25 µM / %>
104

$$$$
>  <Molecule>
C#Cc1ccc(C(=O)Nc2ccc(C3CC3N)cc2)cc1 (stereo not drawn) [MC3935, reference compound]

>  <viability at 72 h, 25 µM / %>
82

$$$$

Look at this molecule and give its reported viability at 72 h, 25 µM. Cl.NC1CC1c1ccc(NC(=O)c2ccc(C#CC3CC3)cc2)cc1 (stereo not drawn) [Compound 19]
98

---

# Tested on: S. mansoni juvenile forms
# Protocol Notes: Speed-of-action assay in juvenile forms
# Format: cell-based, Schistosoma mansoni
# Test Conditions: Schistosoma mansoni, 24 h, read-out: IC50 (speed of action, juvenile forms)
Value Kind: pIC50
// scale note: pIC50 = -log10(conc_M); give the bare number

Query for S. mansoni juvenile forms: what pIC50 does the record show for NC1CC1c1ccc(NC(=O)c2ccc(-c3ccccc3)cc2)cc1 (centres unmarked) [Compound 2] ?
4.79

---

# Tested on: adult worms
# Protocol Notes: Pairing and egg laying of adult worms
# Assay type: cell-based, Schistosoma mansoni
# Test Conditions: 20 μM, 72 h
The following molecules are listed with their measured eggs' number values.
Format: numeric value only, no unit, no commentary.

>  <Molecule>
Cl.NC1CC1c1ccc(NC(=O)c2ccc(C#CC3CC3)cc2)cc1 (stereo not shown)

>  <Measurement Target>
adult worms

>  <Value Kind>
eggs' number

>  <Reported Measurement>
5

$$$$
>  <Molecule>
NC1CC1c1ccc(NC(=O)c2ccc(-c3ccccc3)cc2)cc1 (stereo not shown)

>  <Measurement Target>
adult worms

>  <Value Kind>
eggs' number

>  <Reported Measurement>
6

$$$$
>  <Molecule>
CCCc1ccc(C(=O)Nc2ccc(C3CC3N)cc2)cc1.Cl (stereo not shown)

>  <Measurement Target>
adult worms

>  <Value Kind>
eggs' number

>  <Reported Measurement>
8

$$$$

// moving on: another record for eggs' number
Look at this molecule and give its reported eggs' number. CC#Cc1ccc(C(=O)Nc2ccc(C3CC3N)cc2)cc1.Cl (stereo not shown)
2
